# assay remarks: Half life in rhesus macaque plasma at 75 mg, iv after 0 to 24 hrs by HPLC analysis
# Type: ADME, organism-based, Macaca mulatta
# test conditions: rhesus monkey

compound | half-life [h]
CC1(C)CC(NC(=O)C(=O)Nc2ccc3c(c2)OCO3)CC(C)(C)N1 | 1.75

###

# assay remarks: Initial concentration in rhesus macaque blood at 75 mg, iv after 0 to 24 hrs by HPLC analysis
# Assay type: ADME, organism-based, Macaca mulatta
# test conditions: rhesus monkey
property measured: C0

compound | reported value
CC1(C)CC(NC(=O)C(=O)Nc2ccc3c(c2)OCO3)CC(C)(C)N1 | 2090 ng/mL

// data source = ChEMBL document CHEMBL3751773
